test system: Candida albicans KMM 455; assay: Antimicrobial assay, growth inhibition (optical density); format: cell-based; conditions: Candida albicans, KMM455, 18 h, C. albicans, 18 h

compound	MIC50
COc1c(OC)c(-c2c[nH]c3ccccc23)c(OC)c(OC)c1-c1c[nH]c2ccccc12	> 100 µM
COc1c(OC)c(-c2c[nH]c3ccc(O)cc23)c(OC)c(OC)c1-c1c[nH]c2ccccc12	26 to 52 µM
COC1=C(c2c[nH]c3ccccc23)C(=O)C(CC=C(C)C)=C(c2c[nH]c3ccccc23)C1=O	7 to 10 µM
Cc1c(C)c(O)c2c(c1C)C(C)(O)OC2=O (stereo not shown) [Compound 3, sclerolide]	> 100 µM
C=C(C)C1CCC23C(O)CCC(C)C2(C)CCC(C)C3C1c1c[nH]c2ccccc12 (stereo not shown) [Compound 5, 10,23-dihydro-24,25-dehydroaflavinine]	7 to 10 µM
Cc1c(C)c(O)c2c(c1C)C(C)C(=O)OC2=O (stereo not shown)	> 100 µM
C[C@@H]1[C@H](O)[C@@H](C)/C=C/C=C/C=C/C=C/C=C/C=C/C=C/[C@H](O[C@@H]2O[C@H](C)[C@@H](O)[C@H](N)[C@@H]2O)C[C@@H]2O[C@](O)(C[C@@H](O)C[C@@H](O)[C@H](O)CC[C@@H](O)C[C@@H](O)CC(=O)O[C@H]1C)C[C@H](O)[C@H]2C(=O)O [Amphotericin B, reference compound]	1.18 µM
